B1: PPP2R2C (parent)
chain: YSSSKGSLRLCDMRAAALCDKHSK

Variants of: B1
Test: protein stability index of a GFP-peptide fusion (GPS, HEK-293T) (PSI 1-6); higher = more stable;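 further: lentivirally expressed fusions sorted by FACS into six bins by GFP to DsRed ratio, PSI derived from sequencing read proportions per bin multiplied by bin number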
Conditions: c terminus: a fixed tail appended
RESULT TYPE: protein stability index

{"MUT": "D12V", "RESULT TYPE": "protein stability index", "MEAS VALUE": 2.11}
{"MUT": "L10I", "RESULT TYPE": "protein stability index", "MEAS VALUE": 2.9}
{"MUT": "D12E", "RESULT TYPE": "protein stability index", "MEAS VALUE": 2.71}
{"MUT": "S3E", "RESULT TYPE": "protein stability index", "MEAS VALUE": 2.53}
{"MUT": "R14N", "RESULT TYPE": "protein stability index", "MEAS VALUE": 2.48}
{"MUT": "M13D", "RESULT TYPE": "protein stability index", "MEAS VALUE": 2.37}
{"MUT": "S23E", "RESULT TYPE": "protein stability index", "MEAS VALUE": 1.81}
{"MUT": "S4T", "RESULT TYPE": "protein stability index", "MEAS VALUE": 1.8}
{"MUT": "S3L", "RESULT TYPE": "protein stability index", "MEAS VALUE": 2.7}
{"MUT": "K5Y", "RESULT TYPE": "protein stability index", "MEAS VALUE": 1.52}
{"MUT": "Y1A", "RESULT TYPE": "protein stability index", "MEAS VALUE": 3.93}
{"MUT": "Y1E", "RESULT TYPE": "protein stability index", "MEAS VALUE": 4.47}
{"MUT": "L18R", "RESULT TYPE": "protein stability index", "MEAS VALUE": 1.96}
{"MUT": "L18N", "RESULT TYPE": "protein stability index", "MEAS VALUE": 1.65}
{"MUT": "L10W", "RESULT TYPE": "protein stability index", "MEAS VALUE": 2.21}
{"MUT": "A17Y", "RESULT TYPE": "protein stability index", "MEAS VALUE": 2.06}
{"MUT": "S2T", "RESULT TYPE": "protein stability index", "MEAS VALUE": 2}
{"MUT": "D20E", "RESULT TYPE": "protein stability index", "MEAS VALUE": 1.97}
{"MUT": "C19N", "RESULT TYPE": "protein stability index", "MEAS VALUE": 1.58}
{"MUT": "S23Q", "RESULT TYPE": "protein stability index", "MEAS VALUE": 1.85}
{"MUT": "C11R", "RESULT TYPE": "protein stability index", "MEAS VALUE": 3.31}
{"MUT": "A17Q", "RESULT TYPE": "protein stability index", "MEAS VALUE": 3.18}
{"MUT": "S3Q", "RESULT TYPE": "protein stability index", "MEAS VALUE": 2.45}
{"MUT": "S2E", "RESULT TYPE": "protein stability index", "MEAS VALUE": 3.84}
{"MUT": "M13C", "RESULT TYPE": "protein stability index", "MEAS VALUE": 1.73}
{"MUT": "R14Q", "RESULT TYPE": "protein stability index", "MEAS VALUE": 1.27}
{"MUT": "L10A", "RESULT TYPE": "protein stability index", "MEAS VALUE": 3.72}
{"MUT": "M13Y", "RESULT TYPE": "protein stability index", "MEAS VALUE": 3.27}
{"MUT": "G6M", "RESULT TYPE": "protein stability index", "MEAS VALUE": 1.85}
{"MUT": "A15F", "RESULT TYPE": "protein stability index", "MEAS VALUE": 2.4}
{"MUT": "A15R", "RESULT TYPE": "protein stability index", "MEAS VALUE": 1.38}
{"MUT": "C11T", "RESULT TYPE": "protein stability index", "MEAS VALUE": 2.88}
{"MUT": "K24R", "RESULT TYPE": "protein stability index", "MEAS VALUE": 1.9}
{"MUT": "K24S", "RESULT TYPE": "protein stability index", "MEAS VALUE": 1.65}
{"MUT": "A17G", "RESULT TYPE": "protein stability index", "MEAS VALUE": 1.61}
{"MUT": "G6D", "RESULT TYPE": "protein stability index", "MEAS VALUE": 2.73}
{"MUT": "S7D", "RESULT TYPE": "protein stability index", "MEAS VALUE": 2.24}
{"MUT": "K5S", "RESULT TYPE": "protein stability index", "MEAS VALUE": 2.27}
{"MUT": "M13Q", "RESULT TYPE": "protein stability index", "MEAS VALUE": 1.83}
{"MUT": "S2F", "RESULT TYPE": "protein stability index", "MEAS VALUE": 2.8}
{"MUT": "L8N", "RESULT TYPE": "protein stability index", "MEAS VALUE": 2.36}
{"MUT": "K5H", "RESULT TYPE": "protein stability index", "MEAS VALUE": 1.68}
{"MUT": "K21W", "RESULT TYPE": "protein stability index", "MEAS VALUE": 2.12}
{"MUT": "L10S", "RESULT TYPE": "protein stability index", "MEAS VALUE": 3.54}
{"MUT": "D20N", "RESULT TYPE": "protein stability index", "MEAS VALUE": 2.21}
{"MUT": "A17E", "RESULT TYPE": "protein stability index", "MEAS VALUE": 2.16}
{"MUT": "L10F", "RESULT TYPE": "protein stability index", "MEAS VALUE": 2.22}
{"MUT": "D20I", "RESULT TYPE": "protein stability index", "MEAS VALUE": 2.17}
{"MUT": "S4H", "RESULT TYPE": "protein stability index", "MEAS VALUE": 2.09}
{"MUT": "L8H", "RESULT TYPE": "protein stability index", "MEAS VALUE": 2.64}
{"MUT": "L8F", "RESULT TYPE": "protein stability index", "MEAS VALUE": 2.5}
{"MUT": "K21C", "RESULT TYPE": "protein stability index", "MEAS VALUE": 2.48}
{"MUT": "K21N", "RESULT TYPE": "protein stability index", "MEAS VALUE": 1.9}
{"MUT": "R14H", "RESULT TYPE": "protein stability index", "MEAS VALUE": 2.34}
{"MUT": "H22A", "RESULT TYPE": "protein stability index", "MEAS VALUE": 2.02}
{"MUT": "D12A", "RESULT TYPE": "protein stability index", "MEAS VALUE": 2.32}
{"MUT": "R14E", "RESULT TYPE": "protein stability index", "MEAS VALUE": 2.3}
{"MUT": "S7Y", "RESULT TYPE": "protein stability index", "MEAS VALUE": 1.94}
{"MUT": "D20H", "RESULT TYPE": "protein stability index", "MEAS VALUE": 2.64}
{"MUT": "L8A", "RESULT TYPE": "protein stability index", "MEAS VALUE": 1.75}
{"MUT": "Y1G", "RESULT TYPE": "protein stability index", "MEAS VALUE": 3.72}
{"MUT": "Y1R", "RESULT TYPE": "protein stability index", "MEAS VALUE": 3.81}
{"MUT": "S23M", "RESULT TYPE": "protein stability index", "MEAS VALUE": 2.19}
{"MUT": "A16F", "RESULT TYPE": "protein stability index", "MEAS VALUE": 2.2}
{"MUT": "A16K", "RESULT TYPE": "protein stability index", "MEAS VALUE": 2.53}
{"MUT": "K21T", "RESULT TYPE": "protein stability index", "MEAS VALUE": 1.86}
{"MUT": "A15W", "RESULT TYPE": "protein stability index", "MEAS VALUE": 1.81}
{"MUT": "Y1Q", "RESULT TYPE": "protein stability index", "MEAS VALUE": 3.95}
{"MUT": "H22R", "RESULT TYPE": "protein stability index", "MEAS VALUE": 1.56}
{"MUT": "M13E", "RESULT TYPE": "protein stability index", "MEAS VALUE": 2.49}
{"MUT": "Y1T", "RESULT TYPE": "protein stability index", "MEAS VALUE": 4.13}
{"MUT": "Y1H", "RESULT TYPE": "protein stability index", "MEAS VALUE": 3.72}
{"MUT": "L8K", "RESULT TYPE": "protein stability index", "MEAS VALUE": 2.17}
{"MUT": "L18G", "RESULT TYPE": "protein stability index", "MEAS VALUE": 1.52}
{"MUT": "K24V", "RESULT TYPE": "protein stability index", "MEAS VALUE": 1.74}
{"MUT": "R9V", "RESULT TYPE": "protein stability index", "MEAS VALUE": 2.91}
{"MUT": "S3K", "RESULT TYPE": "protein stability index", "MEAS VALUE": 2.37}
{"MUT": "S7L", "RESULT TYPE": "protein stability index", "MEAS VALUE": 1.49}
{"MUT": "K24H", "RESULT TYPE": "protein stability index", "MEAS VALUE": 1.43}
{"MUT": "H22S", "RESULT TYPE": "protein stability index", "MEAS VALUE": 1.62}
{"MUT": "A16I", "RESULT TYPE": "protein stability index", "MEAS VALUE": 1.84}
{"MUT": "R9P", "RESULT TYPE": "protein stability index", "MEAS VALUE": 3.11}
{"MUT": "S4R", "RESULT TYPE": "protein stability index", "MEAS VALUE": 2.11}
{"MUT": "S4N", "RESULT TYPE": "protein stability index", "MEAS VALUE": 2.32}
{"MUT": "K21Y", "RESULT TYPE": "protein stability index", "MEAS VALUE": 1.95}
{"MUT": "G6Q", "RESULT TYPE": "protein stability index", "MEAS VALUE": 2.39}
{"MUT": "G6I", "RESULT TYPE": "protein stability index", "MEAS VALUE": 2.31}
{"MUT": "D12S", "RESULT TYPE": "protein stability index", "MEAS VALUE": 2.29}
{"MUT": "G6C", "RESULT TYPE": "protein stability index", "MEAS VALUE": 1.95}
{"MUT": "L10R", "RESULT TYPE": "protein stability index", "MEAS VALUE": 3.16}
{"MUT": "G6T", "RESULT TYPE": "protein stability index", "MEAS VALUE": 2.07}
